# TARGET ENTITY: HPK1 (Homo sapiens)
# Construct: A HiBiT tag was introduced by CRISPR on the N terminus of HPK1 in Jurkat cells; host or cells: Jurkat cells (ATCC TIB-152), monoclonal line with CRISPR knock-in of HiBiT at the endogenous HPK1 locus
# ASSAY PROTOCOL: HPK1 Cellular HiBit Degradation Assay
# Assay type: cell-based
# CONDITION CONTEXT: Jurkat, HiBiT HPK1 Jurkat cells, 24 hrs; maximum degradation vs DMSO vehicle control; read-out: Dmax Category
# Procedure: HPK1 Cellular HiBit Degradation Assay A HiBiT tag was introduced by CRISPR on the N terminus of HPK1 in Jurkat cells (ATCC® TIB-152) to allow quantitation of HPK1 protein levels in a monoclonal human cell line. […] Cells were incubated for 10 min at room temperature and luminescence was read on an EnVision plate reader (Perkin Elmer, 0.1 sec per well). […] Percent HPK1 remaining per sample was calculated as follows: […]
TEST READOUT: Dmax

Asked: Respond only with Dmax recorded for CC(C)n1cnc2cc(-c3ccc4c(c3)N([C@H]3C[C@@H](N5CCCCC5)C3)C(=O)C43CCN(C(=O)C4CCN(C(=O)CN5CCN(c6ccc(C7CCC(=O)NC7=O)cn6)CC5)CC4)CC3)nc(Nc3ccccc3F)c21 (mixture of isomers)
Given back: 70 to 85%

Asked: Respond only with Dmax recorded for CC(C)n1cnc2cc(-c3ccc4c(c3)N([C@H]3C[C@@H](N5CCCCC5)C3)C(=O)C43CCN(C(=O)[C@@H]4CCN(C(=O)C5CCN(c6ccc(C7CCC(=O)NC7=O)cn6)CC5)C4)CC3)nc(Nc3ccccc3F)c21 (some centres unmarked)
Given back: > 85%

----------
# TARGET ENTITY: HPK1 (Homo sapiens, UniProt Q92918)
# Construct: A HiBiT tag was introduced by CRISPR on the N terminus of HPK1 in Jurkat cells; host or cells: Jurkat cells (ATCC TIB-152), monoclonal line with CRISPR knock-in of HiBiT at the endogenous HPK1 locus
# Sequence (Q92918 whole entry): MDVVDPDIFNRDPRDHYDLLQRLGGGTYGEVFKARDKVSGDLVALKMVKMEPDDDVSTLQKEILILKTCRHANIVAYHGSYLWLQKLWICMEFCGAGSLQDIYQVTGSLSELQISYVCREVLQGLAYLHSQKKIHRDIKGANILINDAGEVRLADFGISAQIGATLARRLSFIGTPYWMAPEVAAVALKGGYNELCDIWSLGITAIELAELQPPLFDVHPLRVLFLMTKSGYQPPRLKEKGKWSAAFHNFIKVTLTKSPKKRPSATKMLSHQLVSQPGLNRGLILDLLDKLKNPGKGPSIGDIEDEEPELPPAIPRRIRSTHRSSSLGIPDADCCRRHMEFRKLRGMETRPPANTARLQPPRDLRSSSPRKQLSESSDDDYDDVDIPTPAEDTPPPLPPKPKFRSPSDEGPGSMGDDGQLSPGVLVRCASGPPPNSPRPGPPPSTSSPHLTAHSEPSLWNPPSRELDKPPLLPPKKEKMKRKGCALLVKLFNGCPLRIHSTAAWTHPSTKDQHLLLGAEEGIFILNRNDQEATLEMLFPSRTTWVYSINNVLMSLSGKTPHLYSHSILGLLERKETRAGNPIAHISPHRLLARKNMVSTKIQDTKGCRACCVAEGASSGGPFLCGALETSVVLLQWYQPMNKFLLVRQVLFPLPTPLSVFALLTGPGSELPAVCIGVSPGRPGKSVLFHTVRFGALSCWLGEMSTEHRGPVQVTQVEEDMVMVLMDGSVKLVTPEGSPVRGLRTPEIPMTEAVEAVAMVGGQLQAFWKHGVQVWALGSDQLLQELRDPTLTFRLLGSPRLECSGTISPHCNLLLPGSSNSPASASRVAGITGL
# ASSAY PROTOCOL: HPK1 Cellular HiBit Degradation Assay
# Assay type: cell-based
# CONDITION CONTEXT: Jurkat, HiBiT HPK1 Jurkat cells, 24 hrs; maximum degradation vs DMSO vehicle control; read-out: Dmax Category
TEST READOUT: Dmax

Asked: Lab note: HPK1 (Homo sapiens, UniProt Q92918) assay, enter Dmax for CC(C)n1cnc2cc(-c3ccc4c(c3)N([C@H]3C[C@@H](N5CCCCC5)C3)C(=O)C43CCN(C(=O)[C@H]4CC[C@H](C(=O)N5CCC(N(C)c6ccc(C7CCC(=O)NC7=O)cc6)CC5)CC4)CC3)nc(Nc3ccncc3F)c21 (mixture of isomers) here
Given back: 70 to 85%

Asked: Lab note: HPK1 (Homo sapiens, UniProt Q92918) assay, enter Dmax for CC(C)n1cnc2cc(-c3ccc4c(c3)N([C@H]3C[C@@H](N5CCCCC5)C3)C(=O)C43CCN(C(=O)C4CN(C(=O)C5CCN(c6ccc(C7CCC(=O)NC7=O)cn6)CC5)CC5(CCC5)C4)CC3)nc(NC3CC3)c21 (mixture of isomers) here
Given back: 50 to 70%

Asked: Lab note: HPK1 (Homo sapiens, UniProt Q92918) assay, enter Dmax for CC(C)n1cnc2cc(-c3ccc4c(c3)N([C@H]3C[C@@H](N5CCCCC5)C3)C(=O)C43CCN(C(=O)C4(C)CCN(C(=O)C5CCN(c6ccc(C7CCC(=O)NC7=O)cc6)CC5)CC4)CC3)nc(NC3CC3)c21 (mixture of isomers) here
Given back: 70 to 85%

Asked: Lab note: HPK1 (Homo sapiens, UniProt Q92918) assay, enter Dmax for CC(C)n1cnc2cc(-c3ccc4c(c3)N([C@H]3C[C@@H](N5CCC(F)CC5)C3)C(=O)C43CCN(C(=O)C4(C)CCN(C(=O)C5CCN(c6ccc(C7CCC(=O)NC7=O)cn6)CC5)CC4)CC3)nc(NC3CC3)c21 (mixture of isomers) here
Given back: 50 to 70%

Asked: Lab note: HPK1 (Homo sapiens, UniProt Q92918) assay, enter Dmax for CC(C)n1cnc2cc(-c3ccc4c(c3)N([C@H]3C[C@@H](N5CCCCC5)C3)C(=O)C43CCN(C(=O)[C@@H]4CCCN(C(=O)[C@H]5CC[C@H](Oc6ccc(C7CCC(=O)NC7=O)cc6)CC5)C4)CC3)nc(NC3CC3)c21 (mixture of isomers) here
Given back: 70 to 85%

Asked: Lab note: HPK1 (Homo sapiens, UniProt Q92918) assay, enter Dmax for CC(C)n1cnc2cc(-c3ccc4c(c3)N([C@H]3C[C@@H](N5CCCCC5)C3)C(=O)C43CCN(C(=O)C4(C)CCN(C(=O)C5CCN(c6ccc7c(c6)C(=O)N(C6CCC(=O)NC6=O)C7=O)CC5)CC4)CC3)nc(NC3CC3)c21 (some centres unmarked) here
Given back: 50 to 70%

Asked: Lab note: HPK1 (Homo sapiens, UniProt Q92918) assay, enter Dmax for CC(C)n1cnc2cc(-c3ccc4c(c3)N([C@H]3C[C@@H](N5CCCCC5)C3)C(=O)C43CCN(C(=O)C4CCN(C(=O)N5CCC(c6ccc(C7CCC(=O)NC7=O)cn6)CC5)CC4)CC3)nc(Nc3ccccc3F)c21 (mixture of isomers) here
Given back: 50 to 70%

Asked: Lab note: HPK1 (Homo sapiens, UniProt Q92918) assay, enter Dmax for CC(C)n1cnc2cc(-c3ccc4c(c3)N([C@H]3C[C@@H](N5CCCCC5)C3)C(=O)C43CCN(C(=O)c4ccc(C(=O)N5CCN(c6ccc7c(c6)C(=O)N(C6CCC(=O)NC6=O)C7=O)CC5)cc4)CC3)nc(Nc3ccccc3F)c21 (mixture of isomers) here
Given back: > 85%
